Consider the following compounds and their measured Ki readings.
biological target: Mu-type opioid receptor (Cavia porcellus, UniProt P97266)
Sequence (P97266 whole entry): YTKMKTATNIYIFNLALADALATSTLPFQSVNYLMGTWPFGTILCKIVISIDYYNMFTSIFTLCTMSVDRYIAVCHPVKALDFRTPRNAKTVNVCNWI
Numbers only here, please. The scale is nM.

Example entries and their recorded answers appear below.
O=C1CC[C@@H]2CN(CC3CC3)CC[C@@]23c2cccc(O)c2O[C@@H]13    19
O=C1CC[C@H]2CN(CC3CC3)CC[C@@]23c2cccc(O)c2O[C@@H]13    0.25
COc1cccc2c1O[C@H]1[C@@H](O)CC[C@H]3CN(CC4CC4)CC[C@@]231    29
COc1cccc2c1O[C@H]1C(=O)CC[C@H]3CN(CC4CC4)CC[C@@]231    76
Oc1cccc2c1O[C@H]1[C@H](O)CC[C@@H]3CN(CC4CC4)CC[C@@]231    3.9
Oc1cccc2c1O[C@H]1CCC[C@H]3CN(CC4CC4)CC[C@@]231    0.57

Exam item: Report Ki for `CN1CC[C@]23c4cccc(O)c4O[C@H]2C(=O)CC[C@H]3C1` please.
Marked response: 7.8

Exam item: Report Ki for `Oc1cccc2c1O[C@H]1[C@@H](O)CC[C@H]3CN(CC4CC4)CC[C@@]231` please.
Marked response: 1.4
